# tgt: PI3Kα H1047R (T47D cells) (Homo sapiens, UniProt P42336, H1047R)
# Construct: endogenous in cells; host or cells: T47D cells
# Sequence (P42336 whole entry H1047R): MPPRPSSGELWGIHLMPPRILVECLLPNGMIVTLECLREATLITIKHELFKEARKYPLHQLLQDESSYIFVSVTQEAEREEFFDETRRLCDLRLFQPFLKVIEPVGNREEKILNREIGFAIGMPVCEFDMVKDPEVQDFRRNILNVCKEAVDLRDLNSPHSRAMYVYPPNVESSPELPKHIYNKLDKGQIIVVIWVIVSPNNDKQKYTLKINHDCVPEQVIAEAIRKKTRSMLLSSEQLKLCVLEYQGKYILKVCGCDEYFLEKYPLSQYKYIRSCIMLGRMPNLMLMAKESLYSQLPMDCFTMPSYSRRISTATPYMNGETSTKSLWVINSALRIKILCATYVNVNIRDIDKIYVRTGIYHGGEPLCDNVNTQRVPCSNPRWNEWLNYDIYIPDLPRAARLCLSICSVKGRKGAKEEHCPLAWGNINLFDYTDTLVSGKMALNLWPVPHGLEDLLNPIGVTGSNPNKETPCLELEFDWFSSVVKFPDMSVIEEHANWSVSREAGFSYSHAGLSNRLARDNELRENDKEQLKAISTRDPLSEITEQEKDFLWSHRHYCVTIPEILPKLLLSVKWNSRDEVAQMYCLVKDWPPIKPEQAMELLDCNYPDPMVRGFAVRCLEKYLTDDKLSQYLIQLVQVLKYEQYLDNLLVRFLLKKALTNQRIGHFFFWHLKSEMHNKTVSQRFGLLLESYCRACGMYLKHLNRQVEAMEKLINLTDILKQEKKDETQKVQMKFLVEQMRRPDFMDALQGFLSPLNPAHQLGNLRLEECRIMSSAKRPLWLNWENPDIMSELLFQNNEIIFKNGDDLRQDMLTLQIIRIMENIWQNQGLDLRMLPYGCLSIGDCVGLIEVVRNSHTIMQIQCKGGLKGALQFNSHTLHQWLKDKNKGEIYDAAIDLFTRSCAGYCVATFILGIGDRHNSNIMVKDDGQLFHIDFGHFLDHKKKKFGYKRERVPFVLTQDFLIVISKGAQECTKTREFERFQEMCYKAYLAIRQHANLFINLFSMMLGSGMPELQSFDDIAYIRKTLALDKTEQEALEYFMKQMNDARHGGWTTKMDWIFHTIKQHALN
# Sequence (P27986 whole entry partner): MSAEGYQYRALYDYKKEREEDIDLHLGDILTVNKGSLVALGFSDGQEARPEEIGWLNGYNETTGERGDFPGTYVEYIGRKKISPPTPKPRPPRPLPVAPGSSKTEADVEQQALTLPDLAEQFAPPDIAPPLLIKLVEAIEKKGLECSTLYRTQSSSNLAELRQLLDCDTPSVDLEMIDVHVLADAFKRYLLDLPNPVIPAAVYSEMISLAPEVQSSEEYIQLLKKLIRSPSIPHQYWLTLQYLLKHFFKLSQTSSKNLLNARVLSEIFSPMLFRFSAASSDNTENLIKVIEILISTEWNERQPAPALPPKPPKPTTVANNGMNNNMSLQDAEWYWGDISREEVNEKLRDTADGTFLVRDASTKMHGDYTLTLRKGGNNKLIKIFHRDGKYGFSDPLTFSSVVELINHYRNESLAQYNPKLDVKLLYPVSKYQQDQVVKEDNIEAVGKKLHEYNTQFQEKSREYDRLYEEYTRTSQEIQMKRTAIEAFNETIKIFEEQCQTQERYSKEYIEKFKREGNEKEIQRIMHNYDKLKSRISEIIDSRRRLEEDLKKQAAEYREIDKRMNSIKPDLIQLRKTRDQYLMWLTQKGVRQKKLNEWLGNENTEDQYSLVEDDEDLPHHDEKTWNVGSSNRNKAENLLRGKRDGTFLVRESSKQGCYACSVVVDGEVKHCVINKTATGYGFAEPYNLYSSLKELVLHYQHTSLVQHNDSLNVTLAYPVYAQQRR
# assay.explanation: PI3Kα cellular assay: pAKT HTRF in T47D cells after EGF stimulation
# Assay type: cell-based
# condition.summary: selectivity of T47D (H1047R) over SKBR3 (WT) pAKT IC50
recorded.metric: T47D pAKT S473 HTRF IC50 (H1047R): T47D (H1047R) selectivity over SKBR3 (WT)

Solved cases (4 shown):
- molecule: "Cc1cc([C@@H](C)Nc2ccccc2C(=O)O)c2nc(-c3ccc(C(=O)N(C)C)cc3)cc(=O)n2c1"
  tgt: "PI3Kα H1047R (T47D cells) (Homo sapiens, UniProt P42336, H1047R)"
  endpoint.value: "A (A denotes >20-fold)"
- molecule: "Cc1cc([C@@H](C)Nc2ccccc2C(=O)O)c2nc(-c3cc4c(N)nn(C)c4cc3C)c(C)c(=O)n2c1"
  tgt: "PI3Kα H1047R (T47D cells) (Homo sapiens, UniProt P42336, H1047R)"
  endpoint.value: "C (C denotes ≤5-fold)"
- molecule: "Cc1cc([C@H](C)Nc2cccc3c2C(=O)NCC3)c2nc(N3CCOCC3)cc(=O)n2c1"
  tgt: "PI3Kα H1047R (T47D cells) (Homo sapiens, UniProt P42336, H1047R)"
  endpoint.value: "C (C denotes ≤5-fold)"
- molecule: "Cc1cc(C(C)Nc2ccccc2C(=O)O)c2nc(-c3ccc4c(c(N)nn4C)c3C)cc(=O)n2c1 (centres unmarked)"
  tgt: "PI3Kα H1047R (T47D cells) (Homo sapiens, UniProt P42336, H1047R)"
  endpoint.value: "C (C denotes ≤5-fold)"

Input line: Checklist item: T47D pAKT S473 HTRF IC50 (H1047R): T47D (H1047R) selectivity over SKBR3 (WT) tested on PI3Kα H1047R (T47D cells) (Homo sapiens, UniProt P42336, H1047R), entry Cc1cc(C(C)Nc2ccccc2C(=O)O)c2nc(C3C[C@@H](C)O[C@@H](C)C3)c(C)c(=O)n2c1 (some centres unmarked) , value?
Output line: A (A denotes >20-fold)

Input line: Checklist item: T47D pAKT S473 HTRF IC50 (H1047R): T47D (H1047R) selectivity over SKBR3 (WT) tested on PI3Kα H1047R (T47D cells) (Homo sapiens, UniProt P42336, H1047R), entry `Cc1cc([C@@H](C)Nc2ccccc2C(=O)O)c2nc(-c3ccc4c(c3)c(C)c(C)n4C)cc(=O)n2c1` , value?
Output line: A (A denotes >20-fold)

Input line: What reported T47D pAKT S473 HTRF IC50 (H1047R): T47D (H1047R) selectivity over SKBR3 (WT) corresponds to Cc1cc(C(C)Nc2ccccc2C(=O)O)c2nc(-c3c(C)ccc4[nH]ncc34)c(C)c(=O)n2c1 (centres unmarked) on PI3Kα H1047R (T47D cells) (Homo sapiens, UniProt P42336, H1047R)?
Output line: C (C denotes ≤5-fold)

Input line: Under PI3Kα H1047R (T47D cells) (Homo sapiens, UniProt P42336, H1047R): T47D pAKT S473 HTRF IC50 (H1047R): T47D (H1047R) selectivity over SKBR3 (WT) value of `CNc1nn(C)c2ccc(-c3cc(=O)n4cc(C)cc([C@@H](C)Nc5ccccc5C(=O)O)c4n3)cc12` ?
Output line: A (A denotes >20-fold)

Input line: API: value(readout= T47D pAKT S473 HTRF IC50 (H1047R): T47D (H1047R) selectivity over SKBR3 (WT), system= PI3Kα H1047R (T47D cells) (Homo sapiens, UniProt P42336, H1047R), query= Cc1cc(C(C)Nc2ccccc2C(=O)O)c2nc(-c3ccc(F)cc3)c(C)c(=O)n2c1 (centres unmarked) )
Output line: A (A denotes >20-fold)
